Origin of the recorded values: ChEMBL document CHEMBL1130365

Reported log10(IC50) values for a set of compounds
target: Sulfonylurea receptors; K-ATP channels (Homo sapiens, UniProt O60706+Q09428+Q14654+Q15842); test: Compound was measured in vitro for potassium channel opening (PCO) activity
Parameter value (number): base-10 log of IC50 in µM.

Looking up CC(O)(C(=O)Nc1ccc(S(=O)(=O)N2CCSCC2)cc1)C(F)(F)F (racemic) , I found its log10(IC50) recorded as 0.66

Sure, the documented log10(IC50) for CC(O)(C(=O)Nc1ccc(S(=O)(=O)N2CCOCC2)cc1)C(F)(F)F (racemic) is 0.77

The recorded log10(IC50) for CC(O)(C(=O)Nc1ccc(S(=O)(=O)N2CCCCC2)cc1)C(F)(F)F (racemic) is 0.97

Continuing:
The compound identified as CC(O)(C(=O)Nc1ccc(S(N)(=O)=O)cc1)C(F)(F)F (racemic) registered its log10(IC50) at 1.11

Looking up CCCN(CCC)S(=O)(=O)c1ccc(NC(=O)C(C)(O)C(F)(F)F)cc1 (racemic) , I see its log10(IC50) listed as 0.81

Input CN(C)S(=O)(=O)c1ccc(NC(=O)C(C)(O)C(F)(F)F)cc1 (racemic) . Output log10(IC50): -0.32

Please fill in: log10(IC50) reported for CC(O)(C(=O)Nc1ccc(S(=O)(=O)N2CCCC2)cc1)C(F)(F)F (racemic) = -0.06

CCN(CC)S(=O)(=O)c1ccc(NC(=O)C(C)(O)C(F)(F)F)cc1 (racemic) yielded log10(IC50) of -0.09

----------
biological target: Sulfonylurea receptors; K-ATP channels (Homo sapiens, UniProt O60706+Q09428+Q14654+Q15842); test: Compound was measured in vitro for potassium channel opening (PCO) activity
Measured IC50 values are reported for all entries that follow.

IC50 in this record for CO/N=C(/c1ccccc1)c1ccc(NC(=O)C(C)(O)C(F)(F)F)cc1 (racemic) : > 30 µM

In plain terms, Cn1nnnc1-c1ccc(NC(=O)C(C)(O)C(F)(F)F)cc1 (racemic) has a documented IC50 of 30.9 µM

The molecule CC(O)(C(=O)Nc1ccc(S(=O)(=O)N(c2ccccc2)c2ccccc2)cc1)C(F)(F)F (racemic) showed IC50 equal to > 30 µM
